Assay: small-molecule microarray binders of probe aCHRDL2, primary screen, biochemical, biotinylated probe, 635/667 nm fluorescence (AID 1100)
Settings: higher = more signal
Rule: composite z-score of -0.2 or more gives met; anything lower gives not met.

| compound | class label |
| --- | --- |
| CC[C@@H](c1ccccc1)n1c(=O)n2n(c1=O)[C@H]1[C@H](O)[C@@H]3O[C@@H]3C(=O)[C@H]1CC2 | not met |
| COc1ccc(O[C@H]2C=C[C@@H](c3ccccc3)O[C@@H]2CON=CC[C@@H]2C=C[C@H](OC(C)=O)[C@@H](COC(C)=O)O2)cc1 | met |
| CC(C)CON=C1C[C@@H](O)[C@@H](O)[C@@H]2[C@@H]3C(=O)N(Cc4ccc5c(c4)OCO5)C(=O)[C@@H]3CC[C@H]12 | not met |
| CCOC(=O)[C@H](CC(C)C)NC(=O)CCC1CC(OC(=O)NCCc2ccc(F)cc2)CC2(CCCC(COC(=O)NCCc3ccccc3OC)O2)O1 (some centres undefined) | not met |
| COCCNC(=O)OCC1CCCC2(CC(OC(=O)NCc3ccc4c(c3)OCO4)CC(CCC(=O)N[C@@H](C)C(=O)OC)O2)O1 (some centres undefined) | not met |
| Cc1cc2c(nc1C)CCCN2CC(O)CN1CCCc2nc(C)c(C)cc21 | met |
| CO[C@H]1COC(=O)CCC[C@@H](C)[C@H](OC)COC(=O)[C@@H]2CCCN2C(=O)CC=C[C@@H]1C | not met |
| COC(=O)CC=C[C@@H](C)[C@@H](C=NOC[C@H]1O[C@H](c2ccccc2)C=C[C@@H]1Oc1ccc(OC)cc1)OC | not met |
| COC(=O)CC=C[C@@H](C)[C@@H](C=NO[C@H](C)c1cn([C@@H]2COC[C@H]2O)nn1)NS(=O)(=O)c1ccc(C)cc1 | not met |
| COc1ccc(O[C@H]2C=C[C@@H](c3ccccc3)O[C@@H]2CON=C(C)C)cc1 | met |
| COC(=O)CC=C[C@@H](C)[C@@H](C=NOCC[C@@H]1C=C[C@H](OC(C)=O)[C@@H](COC(C)=O)O1)OC | not met |
| COC(=O)[C@H](C)NC(=O)CCC1CC(OC(=O)NCc2ccc3c(c2)OCO3)CC2(CCCC(COC(=O)NCc3cccc(C(F)(F)F)c3)O2)O1 (some centres undefined) | not met |
| COC(=O)CC=C[C@@H](C)[C@@H](C=NO[C@H](C)c1cn([C@H](CO)Cc2ccccc2)nn1)NS(=O)(=O)c1ccc(C)cc1 | met |
| O=C1[C@H]2[C@H]3[C@H](O)[C@H](O)CC(=NO[C@@H]4O[C@H](CO)[C@@H](O)[C@H](O)[C@H]4O)[C@H]3CC[C@H]2C(=O)N1c1cccc(Oc2ccccc2)c1 | not met |
| O=C1[C@H]2[C@H]3[C@H](O)[C@H](O)CC(=NOCc4ccccc4)[C@@H]3CC[C@H]2C(=O)N1C[C@@H]1CCCO1 | not met |
| CON=C1[C@H]2CCn3c(=O)n(-c4ccccc4)c(=O)n3[C@H]2[C@H](O)[C@@H]2O[C@H]12 | not met |
| CC(C)CON=C1C[C@@H](O)[C@@H](O)[C@@H]2[C@@H]3C(=O)N(C4CCCCC4)C(=O)[C@@H]3CC[C@H]12 | met |
| CCOC(=O)NN=C1C[C@@H](O)[C@@H](O)[C@@H]2[C@@H]3C(=O)N(Cc4ccc5c(c4)OCO5)C(=O)[C@@H]3CC[C@H]12 | not met |
| O=c1n(Cc2cc3c(cc2Cl)OCO3)c(=O)n2n1CC[C@@H]1C(=NOCc3ccccc3)[C@H]3O[C@H]3[C@@H](O)[C@@H]12 | not met |
| CC(=O)OC[C@H]1O[C@H](CC=NO[C@H](C)c2cn([C@H](CO)Cc3ccccc3)nn2)C=C[C@@H]1OC(C)=O | not met |
| CC(C)=CCCC(C)=CCON=C1C[C@@H](O)[C@@H](O)[C@@H]2[C@@H]3C(=O)N(C[C@@H]4CCCO4)C(=O)[C@@H]3CC[C@H]12 | not met |
| COc1ccc(COC(=O)NN=C2C[C@@H](O)[C@@H](O)[C@@H]3[C@@H]4C(=O)N(Cc5ccccc5)C(=O)[C@@H]4CC[C@H]23)cc1 | met |
| O=c1n(Cc2cc3c(cc2Cl)OCO3)c(=O)n2n1CC[C@@H]1C(=NOC[C@@H](O)COCc3ccco3)[C@H]3O[C@H]3[C@@H](O)[C@@H]12 | not met |
| CO[C@@H]1COC(=O)CC=C[C@H](C)[C@H](OC)COC(=O)[C@H](C)NC(=O)CC=C[C@H]1C | not met |
| C#CCCCON=C1C[C@@H](O)[C@@H](O)[C@@H]2[C@@H]3C(=O)N(Cc4ccccc4)C(=O)[C@@H]3CC[C@@H]12 | met |
| Cc1cc2c(c(=O)o1)[C@@H](O)[C@H]1O[C@H]1C2=O | not met |
| CCCCC#C[C@@H]1C=C[C@H](Oc2cc(OC)c(OC)c(OC)c2)[C@@H](COC(=O)OCC)O1 | not met |
| COC(=O)[C@@H]1CC[C@@H](C)[C@H](c2ccc(Br)cc2)N1 | met |
| CCCNC(=O)OC[C@H]1O[C@H](CCON=C(C)CCC(=O)OC[C@H]2O[C@H](c3ccccc3)C=C[C@@H]2Oc2ccc(OC)cc2)C=C[C@@H]1Oc1ccc(OC)cc1 | not met |

Each recorded value in this set is attributed to PubChem BioAssay.
